Values from paper PMC7604896

- protocol_details: Cytotoxicity, inhibition of cell growth in HEL cell culture
- Assay type: cell-based
- condition_set: human; HEL cells; concentration reducing cell growth by 50%
assay_endpoint: CC50

{"columns": ["molecule", "observed_result"],
 "data": [
  ["O=c1c2ccccc2ncn1CCn1c(=O)ccn(CCCCCCCCOc2ccc(Br)cc2)c1=O", "12.8 µM"],
  ["Nc1ccn(C[C@@H](CO)OCP(=O)(O)O)c(=O)n1 [Cidofovir, reference compound]", "129 µM"],
  ["Cc1ccc2ncn(CCn3c(=O)ccn(CCCCCOc4ccc(Br)cc4)c3=O)c(=O)c2c1", "> 100 µM"],
  ["O=c1c2ccccc2ncn1CCn1c(=O)ccn(CCCCCCCCCCCCOc2ccc(Br)cc2)c1=O", "> 100 µM"],
  ["O=c1c2ccccc2ncn1CCCn1c(=O)ccn(CCCCCOc2ccc(Br)cc2)c1=O", "1.81 µM"],
  ["O=c1[nH]c(=O)n([C@H]2C[C@H](O)[C@@H](CO)O2)cc1/C=C/Br [Brivudine, reference compound]", "> 100 µM"],
  ["O=c1c2ccccc2ncn1CCn1c(=O)ccn(CCCCCCCCCCOc2ccc(Br)cc2)c1=O", "> 100 µM"],
  ["Nc1nc(O)c2ncn(COC(CO)CO)c2n1 [Ganciclovir, reference compound]", "196 µM"],
  ["Nc1nc2c(ncn2COCCO)c(=O)[nH]1 [Acyclovir, reference compound]", "> 100 µM"]
]}

----------
Catalogue of melting point readings, one per entry.

{"columns": ["compound", "melting point"],
 "data": [
  ["O=c1c2ccccc2ncn1CCn1c(=O)ccn(CCCCCCCCOc2ccc(Br)cc2)c1=O [Compound 13]", "171.5 to 173 °C"],
  ["O=c1c2ccccc2ncn1CCCn1c(=O)ccn(CCCCCOc2ccc(Br)cc2)c1=O [Compound 17]", "103.5 to 104.5 °C"],
  ["O=c1c2ccccc2ncn1CCn1c(=O)ccn(CCCOc2ccc(Br)cc2)c1=O [Compound 9]", "178.5 to 179.5 °C"],
  ["O=c1c2ccccc2ncn1CCn1c(=O)ccn(CCCCCCOc2ccc(Br)cc2)c1=O [Compound 12]", "178.5 to 179.5 °C"],
  ["O=c1c2ccccc2ncn1CCn1c(=O)ccn(CCCCOc2ccc(Br)cc2)c1=O [Compound 10]", "191 to 192 °C"],
  ["O=c1c2ccc(Cl)cc2ncn1CCn1c(=O)ccn(CCCCCOc2ccc(Br)cc2)c1=O [Compound 16]", "154 to 155 °C"],
  ["Cc1ccc2ncn(CCn3c(=O)ccn(CCCCCOc4ccc(Br)cc4)c3=O)c(=O)c2c1 [Compound 18]", "180 to 181.5 °C"],
  ["O=c1c2ccccc2ncn1CCn1c(=O)ccn(CCCCCCCCCCOc2ccc(Br)cc2)c1=O [Compound 14]", "161 to 162 °C"],
  ["O=c1c2ccccc2ncn1CCn1c(=O)ccn(CCCCCOc2ccc(Br)cc2)c1=O [Compound 11]", "174.5 to 176 °C"],
  ["O=c1c2ccccc2ncn1CCn1c(=O)ccn(CCCCCCCCCCCCOc2ccc(Br)cc2)c1=O [Compound 15]", "150 to 152 °C"]
]}

----------
Quick list: pEC50 per entry.
- System: VZV Oka (TK+)
- protocol_details: microbe, parasite or virus in culture
- Format: cell-based, varicella zoster virus
- condition_set: Human alphaherpesvirus 3, HEL, read-out: Antiviral activity, EC50 VZV Oka (TK+)
pEC50: −log10 of the molar value.

{"columns": ["molecule", "pEC50"],
 "data": [
  ["O=c1c2ccccc2ncn1CCn1c(=O)ccn(CCCCOc2ccc(Br)cc2)c1=O", "< 4.70"],
  ["O=c1c2ccc(Cl)cc2ncn1CCn1c(=O)ccn(CCCCCOc2ccc(Br)cc2)c1=O", "< 4.70"],
  ["O=c1c2ccccc2ncn1CCn1c(=O)ccn(CCCCCCCCOc2ccc(Br)cc2)c1=O", "< 4.00"],
  ["O=c1c2ccccc2ncn1CCn1c(=O)ccn(CCCCCCCCCCCCOc2ccc(Br)cc2)c1=O", "< 4.00"],
  ["Cc1ccc2ncn(CCn3c(=O)ccn(CCCCCOc4ccc(Br)cc4)c3=O)c(=O)c2c1", "< 4.00"],
  ["O=c1c2ccccc2ncn1CCn1c(=O)ccn(CCCCCOc2ccc(Br)cc2)c1=O", "< 4.70"],
  ["O=c1c2ccccc2ncn1CCn1c(=O)ccn(CCCOc2ccc(Br)cc2)c1=O", "< 4.00"],
  ["O=c1[nH]c(=O)n([C@H]2C[C@H](O)[C@@H](CO)O2)cc1/C=C/Br [Brivudine, reference compound]", 7.41],
  ["O=c1c2ccccc2ncn1CCn1c(=O)ccn(CCCCCCOc2ccc(Br)cc2)c1=O", "< 4.00"],
  ["O=c1c2ccccc2ncn1CCn1c(=O)ccn(CCCCCCCCCCOc2ccc(Br)cc2)c1=O", "< 4.00"],
  ["O=c1c2ccccc2ncn1CCCn1c(=O)ccn(CCCCCOc2ccc(Br)cc2)c1=O", 4.54]
]}
